- experiment.summary: 384-well plate pilot, post-Golgi transport modulator project, inhibition of yeast transport mutant growth (AID 636); further: test concentration not given here
- experimental.parameters: absorbance 615 nm, about 18 h, hits give high values
Let's look at some compounds and their measured inhibition.
Write the number in % without appending the unit.

compound	measurement.unit	inhibition
COc1cc(NS(=O)(=O)c2ccc(N)cc2)nc(OC)n1	%	1.43

Request: State its inhibition for this compound: Cc1ccc(Cn2ccc(NC(=O)c3noc4c3CCCC4)n2)cc1
Result: -3.25

Request: State its inhibition for this compound: CCn1cc(C(=O)NCc2ccco2)c(=O)c2cc(F)c(N3CCN(C(=O)c4ccco4)CC3)cc21
Result: -7.4

Request: State its inhibition for this compound: NC(=O)c1cc(-c2ccccc2)nc(N2CCOCC2)n1
Result: -2.97

Request: State its inhibition for this compound: CC(=O)NCCC(=O)Nc1ccc(C)c(F)c1
Result: -2.05

Request: State its inhibition for this compound: CCCOc1cccc(C(=O)Nc2cc(NC(=O)c3ccco3)ccc2OC)c1
Result: -3.78

Request: State its inhibition for this compound: COc1cc([C@@H]2[C@H]3CN(C)CC=C3C(C#N)=C(N)C2(C#N)C#N)cc2c1OCO2
Result: -2.19

Request: State its inhibition for this compound: O=C(O)CCc1ccc(-c2cccs2)n1NC(=O)c1ccccc1Br
Result: -6.71

Request: State its inhibition for this compound: CC(C(=O)O)c1ccc(-c2ccccc2)c(F)c1 (centres undefined)
Result: -1.82

Request: State its inhibition for this compound: COc1ccc(CN(C2CCCC2)S(=O)(=O)c2ccc(-n3cnnn3)cc2)cc1OC
Result: -7.12

Request: State its inhibition for this compound: C1=C(CCNc2ncnc3c2cnn3-c2ccccc2)CCCC1
Result: -4.13

Request: State its inhibition for this compound: Cc1ccccc1-c1nc2ccccc2c(=O)n1C1CCS(=O)(=O)C1 (centres undefined)
Result: 0.26

Request: State its inhibition for this compound: CC1=C(C(=O)Nc2ccccc2C)C2(CCCC2)C(C(N)=O)C(=O)N1 (centres undefined)
Result: 0.96

Request: State its inhibition for this compound: CCNc1oc(COc2cccc(C)c2)nc1C#N
Result: -7.53

Request: State its inhibition for this compound: O=C(c1cc(-c2cccs2)on1)N1CCc2ccccc2C1
Result: -2.24

Request: State its inhibition for this compound: CC(C)CN(C(=O)c1ccc(=O)n(C)n1)c1nc2ccccc2s1
Result: -1.08

Request: State its inhibition for this compound: Cc1occc1C(=O)Nc1ccc(S(=O)(=O)N2CCN(C)CC2)cc1
Result: -3.01

Request: State its inhibition for this compound: Cn1c(SCC(=O)Nc2cccc3ccccc23)nc(O)cc1=O
Result: -4.67
